tested on: MS2 coat protein; test: apparent KD of MS2 coat protein, switch ON state; designed switch direction (-1 OFF switch, 1 ON switch): 1; higher = weaker reporter binding; settings: FMN input: 0 or 200 uM; Eterna round: R93 (includes R88 designs)
Each entry below carries its recorded apparent KD of MS2 coat protein.

| seq.string | study.system | apparent KD of MS2 coat protein (µM) |
| --- | --- | --- |
| AAGAAACAUGAGGAUCACCCAUGUAGAAAUAUGGGAGGAUAUACAAAGACGAAAGUCAAAGUAGAAGGCCUGAAAG [Mat - Same State 1 - Eli mod - 84] | MS2 coat protein | 0.0385 |
| AGAAAACAUGAGGAUCACCCAUGUAGAAAUAUGGGAGGAUAUACGAAGACGAAAGUCAAAGUAGAAGGCCUAAAAG [Mat - Same State 1 - Eli mod - D102] | MS2 coat protein | 0.022 |
| AAAAGACAUGAGGAUCACCCAUGUAAAGACAUGAGAGGAUAUGCAUGGAAAACAUGCUGUGCAGAAGGCUCAUGUC [SS1 - 17] | MS2 coat protein | 0.0181 |
| GCCGGUUAUGAGCAGGAUAUGUCACCGCUAACAUGAGGAUCACCCAUGUGAGCAAAAUCGAGGUCACAGAAGGGUUCCGGCAAAA [Disoerce] | MS2 coat protein | 0.0178 |
| UGGAGACAUGAGGAUCACCCAUGUGAGAAGAGGCGAGGAUAUCGAAAGAAAGAAGAGAAACGAGAAGGCGCGAGGU [salish99-SS1-036] | MS2 coat protein | 0.0344 |
| CGAAAGGAGAGAGAGGAUAUCCAAAGGAAAACAUGAGGAUCACCCAUGUAGAAGGUAGGAGAUUGGGAGAAGGCUCAAGAGAGAC [salish99-ss2-148] | MS2 coat protein | 0.024 |

----------
system: MS2 coat protein; test: apparent KD of MS2 coat protein; designed switch direction (-1 OFF switch, 1 ON switch): -1; higher = weaker reporter binding; conditions: input ligand: FMN 200 uM
Assign class by apparent KD of MS2 coat protein: not lower than 60 nM means met; lower than 60 nM means not met.

| seq.string | class.name |
| --- | --- |
| CGGCGGGCAGGAUAUGGUAAUAAUUACAUGAGGAUCACCCAUGUGGAUAUAUGGGAAUAACCAGAAGGGCUUGUUG [-20.1, -20 kcal, A 30%] (Eterna round: R97, puzzle: Exclusion 5) | met |
| ACAUGACUGCUAGGAUAUAGAUGACAUGAGGAUCACCCAUGUUGUCCCAUGUUUAUGGAAACGGACUAGAAGGAGUAGUAUAUG [Ex NG2 #14] (Eterna round: R96, puzzle: Exclusion NG 2) | not met |
| GAAUGAGAGCAGGAUAUCUUAUAAAUGUAUGAAAGAGAAGGGCUCACAUGAGGAUCACCCAUGUGGUCCUAAAU [jl-ex6-4.74 jandersonlee mod] (Eterna round: R97, puzzle: Exclusion 6) | met |
| CUCAGUGGUGAGGAUAUGCGCGCCCAAUGGACGGUAGAAGGUACUACAUGAGGAUCACCCAUGUAGCGAAGAUU [Eternabot (L1) Solution 49] (Eterna round: R97, puzzle: Exclusion 6) | not met |
| GUGUUGCGAGGAUAUAUAAGGGUAUGUUCUUAGGAUAUGGAACAUGAGGAUCACCCAUGUAGAAGGUGCAUAAC [JR_Ex2_Sub046] (Eterna round: R97, puzzle: Exclusion 2) | met |

----------
test system: MS2 coat protein; assay: apparent KD of MS2 coat protein; designed switch direction (-1 OFF switch, 1 ON switch): -1; higher = weaker reporter binding; conditions: input ligand: none
Each entry below carries its recorded apparent KD of MS2 coat protein.

| seq.string | study.system | apparent KD of MS2 coat protein (nM) |
| --- | --- | --- |
| GUCAUCAAACAUGGGAUCAACAUGAGGAUCACCCAUGUUGUCAAGUUUUUUGCUCGUCUUAUAAUACGUUUGAUGAC [Mod-Jxb] (Eterna round: R97, puzzle: Sensor, turn-off variant 1) | MS2 coat protein | 16.4 |
| AACUAGGCAGGAUAUACAUGAGGAUCACCCAUGUAAAUUUUUCGUUUAACUUGAAUGUGUAGAAGGGCCAUAAA [Ex3 #52] (Eterna round: R97, puzzle: Exclusion 3) | MS2 coat protein | 24.6 |
| GAGCUGUGAGGAUAUACAUGAGGAUCACCCAUGUAAUGGUAGUCGGGAUUAAUUUGGUGUAGAAGGCGCUUAUU [JR_Ex3_Sub020] (Eterna round: R97, puzzle: Exclusion 3) | MS2 coat protein | 46 |

----------
system: MS2 coat protein; experiment: apparent KD of MS2 coat protein; designed switch direction (-1 OFF switch, 1 ON switch): 1; higher = weaker reporter binding; conditions: Eterna round: R95; input ligand: microRNA oligo, concentration not stated

| seq.string | apparent KD of MS2 coat protein |
| --- | --- |
| GGUUUAGUCAGGUGCAGUUGCACCUGAAAACAUGAGGAUCACCCAUGUUUGGGACAAGCUUUGCUCCUCGUCUUGCA [Orinen] (puzzle: Sensor for hsa-mir-208a) | 70.6 nM |
| UCGGGCUCUGCUCGUCUUGAGUUGCUCCCACAUGAGGAUCACCCAUGUAGUGUGCCUAUCAGCGCGCGGGUGACUUU [Riesonso] (puzzle: Sensor for hsa-mir-208a) | 133 nM |
| AGUCCAGCCUGAGCUGGACAAAAGCAUGUACAUGAGGAUCACCCAUGUUCAUGUACAGGCUUUUUGCUCGUCUUAAA [Zipper 52 - 7] (puzzle: Sensor for hsa-mir-208a) | 17.8 nM |

----------
system: MS2 coat protein; assay: apparent KD of MS2 coat protein; higher = weaker reporter binding; conditions: Eterna round: R107; input ligand: arginine 13.2 mM
Each entry below carries its recorded apparent KD of MS2 coat protein.

| seq.string | unit.annotation | apparent KD of MS2 coat protein |
| --- | --- | --- |
| CGUAUUGUAACUGAUACCAGUGUACUGACAUGAGGAUCACCCAUGUUGGGUUUUGUUGUACACCCUUGGCAGCAGAAUCAAUACG [AstrosExyTheB#5] | µM | 0.0594 |
| GUCAGUGACUGAAGGAGCGACAUGAGGAUCACCCAUGUCUCCCGUUAUGGGAGUUCCUUAGGUCAGGUAGGUCGCAGUCACUGAC [#1 Exclusion - Arginine B Attempt #29 (Inspired by Omei)] | µM | 0.174 |
| CGAUAGAUACGAAGGAGCGACAUGAGGAUCACCCAUGUCUACCACGUCGAAAGACGCUCAUGUCAGGUAGGUCGCGUAUUUAUCG [Astros-Eli-mod8] | µM | 0.0603 |
| AUCUUUGGCGAUCUGGGAAAACCAGAUCGACGAGGACCGGUACGGCCGCCACUCGUGUAUAAUAUACAUGAGGAUCACCCAUGUA [#18 Tryptophan A Same State] | µM | 0.0278 |
| UUCACAUGGUAUGAAUAUACAUAUAAGAAACGAGGACCGGUACGGCCGCCACUCGUGCCGGAAACAUGAGGAUCACCCAUGUGUU [AK1.1 Exclusion TrypA mod IceBolt] | µM | 0.027 |
| GUAUAUAUGCGAAGGAGCGGGAAAUAUAUAUAUAUAAUCCUAACAUGAGGAUCACCCAUGUCCCAGGUAGGUCGCGCAUAUAUAU [12.B] | µM | 0.0687 |
| UUGCAGAUCGGAAAGGUCCUGCUGUUCGAAGGAGCGGUAAAAGUACCAGGUAGGUCGCGAACAUGAGGAUCACCCAUGUUUGCAA [Usmaenbi] | µM | 0.0113 |
| GUUAUGAUAAGAAGGAGCGUCGAAAAUGGGUAAACAUGAGGAUCACCCAUGUAAAGGGAACGACAGGUAGGUCGCUUAUUAUAAC [AstromonsSSArgB#20] | µM | 0.0868 |
| CUAUCCUUGCCGGAUGAAGGACACUGAGAAGGAGCGCGGUAAUCCGCAGGUAGGUCGCUCAGGAGUACAUGAGGAUCACCCAUGU [Xeonrave] | µM | 0.0161 |
| GUAUAAAGAAAACUUUAUACAGUGGGUGAACGAGGACCGGUACGGCCGCCACUCGGACAUGAGGAUCACCCAUGUCCAUGUGAAA [AstrosExyTryA#9] | µM | 0.0144 |
| GGACUAACCAGAAGGAGCGGCACAAGCAGAAACUGCAAUCCUCCGCACGAGGAUCACCCGUGUCAGGUAGGUCGCUGGUUAGUCG [ArgBX 28] | µM | 0.0492 |
| CUAUAUAUAUCGGCCGCCACUUACUCAUGAGGUAACAACAUGAGGAUCACCCAUGUUUGAGGAUCAAGGACCGGGAUAUAUAUAG [AstrosSSTryB#15] | µM | 0.0318 |
| GACAUGAGGAUAGAUACCAGCGACAUGAGGAUCACAUGAGGAUCACCCAUGUGUAGUAUACGCCCUUGGCAGCUAACAUGAGGAU [Same State Theophylline B 3] | µM | 0.0595 |
| AUCCACAGCCGAAGGAGCGCAGUAGGAUGACAUGAGGAUCACCCAUGUGUGUGAUGUGGAUUGCAGGUAGGUCGCGGAGUGGGUU [Exclusion - Arginine B (Freestyle 8)] | µM | 0.0439 |
| CCUCCUUGUACGGCCGCCACUGCAUCUCUGGAUACUCCGAUAAUACAUGAGGAUCACCCAUGUUACAGGACCGGGUAUAUAUUAC [theeternabot_sameState_MS2_Trp_B_19] | µM | 0.0147 |
| AACUACUCGAGGUGAUCCUACGAGUGGCAACGAGGACCGGUACGGCCGCCACUCGAAUAAACAUGAGGAUCACCCAUGUACAAAU [T''-M'-T'-T-MS2 - Design 12] | µM | 0.0922 |
| AACCGAGGCUAUCCUCUAAGAAUAUGUGAUACCAGAAUAAUUUUAUUCCCUUGGCAGCAUGACAUGAGGAUCACCCAUGUGUCUU [SSTheo A #7] | µM | 0.07 |
| CAAAUAAGAACAAACAAAUAACGGUUUUCGCGAGGACCGGUACGGCCGCCACUCGUGUGAAAUAACACAUGAGGAUCACCCAUGU [3'end-1] | µM | 0.0318 |
| CUAUAUGGAAACAUAUAGAAGCGAAAGCAGCGAGGACCGGUACGGCCGCCACUCGCAGAGUGGUGGACAUGAGGAUCACCCAUGU [Design 2] | µM | 0.0438 |
| ACGUUUUAGUCGGCCGCCACUGUUUUCAUGUUCAACAUGAGGAUCACCCAUGUACCUUUUUUUAUCAGGACCGGGACGUAAUAGA [JR_SSTryptoB_Sub004] | µM | 0.0477 |
